test description: Cytotoxicity against virus infected HEL cells assessed as alteration in cell morphology by microscopic method
Format: cell-based
test context: human
measurement type: MCC

Below are worked cases with known answers.
INSERT INTO measurements (compound, assay_result) VALUES
  ('Nc1nc2c(ncn2COCCO)c(=O)[nH]1', '> 250 µM'),
  ('Nc1ccn(C[C@@H](CO)OCP(=O)(O)O)c(=O)n1', '> 250 µM'),
  ('Cc1cn([C@H]2C[C@H](F)[C@@H](CO)O2)c(=O)[nH]c1=O', '> 250 µM');

Requested field: MCC. Item: "O=c1[nH]c(=O)n([C@H]2C[C@H](O)[C@@H](CO)O2)cc1/C=C/Br"
> 250 µM

Next: "NC(=O)c1ncn([C@@H]2O[C@H](CO)[C@@H](O)[C@H]2O)n1"
≥ 250 µM

Next: "Nc1ccn([C@H]2CC[C@@H](CO)O2)c(=O)n1"
> 250 µM

Next: CCOP(=O)(OCC)[C@@H]1C[C@@H](Cn2c(=O)n(C(=O)c3ccc(F)cc3)c(=O)c3ccccc32)ON1C (relative stereo)
≥ 100 µM

Next: "Nc1nc(O)c2ncn(COC(CO)CO)c2n1"
> 100 µM

###

Tested on: HEL
test description: Cytotoxicity against HEL cells infected with Varicella-Zoster virus assessed as growth inhibition
Assay type: cell-based
test context: human, hel
measurement type: CC50 (µM)
Value expressed in µM; do not type the unit.

Below are worked cases with known answers.
INSERT INTO assay_data (molecule, assay_result) VALUES
  ('CCOP(=O)(OCC)[C@@H]1C[C@@H](Cn2c(=O)n(C(=O)c3ccc(F)cc3)c(=O)c3ccccc32)ON1C (relative stereo)', 14.7),
  ('O=c1[nH]c(=O)n([C@H]2C[C@H](O)[C@@H](CO)O2)cc1/C=C/Br', 300),
  ('CCOP(=O)(OCC)C1CC(Cn2c(=O)n(Cc3ccccc3F)c(=O)c3ccccc32)ON1Cc1ccccc1 (stereo not drawn)', 11.8),
  ('CCOP(=O)(OCC)C1CC(Cn2c(=O)n(C(=O)c3ccc(F)cc3)c(=O)c3ccccc32)ON1Cc1ccccc1 (mixture of isomers)', 12.3),
  ('CCOP(=O)(OCC)[C@@H]1C[C@@H](Cn2c(=O)n(C(=O)c3cccc(F)c3)c(=O)c3ccccc32)ON1Cc1ccccc1 (relative stereo)', 9.8);

Requested field: CC50. Item: CCOP(=O)(OCC)C1CC(Cn2c(=O)n(C(=O)c3cccc(F)c3)c(=O)c3ccccc32)ON1Cc1ccccc1 (mixture of isomers)
19.3

Next: CCOP(=O)(OCC)C1CC(Cn2c(=O)n(C(=O)c3cccc(F)c3)c(=O)c3ccccc32)ON1C (mixture of isomers)
30

Next: CCOP(=O)(OCC)[C@@H]1C[C@@H](Cn2c(=O)n(C(=O)c3ccc(F)cc3)c(=O)c3ccccc32)ON1Cc1ccccc1 (relative stereo)
12.7

###

Tested on: Human adenovirus 2
test description: Antiviral activity against Human adenovirus 2 infected in HEL cells assessed as reduction in virus-induced cytopathogenicity
Assay type: functional, cell-based
test context: Human mastadenovirus C
measurement type: pEC50
Note on pEC50: it is the negative log10 of concentration, concentration in mol/L.

INSERT INTO results (molecule, assay_result) VALUES
  ('CCOP(=O)(OCC)[C@@H]1C[C@@H](Cn2c(=O)n(C(=O)c3ccc(F)cc3)c(=O)c3ccccc32)ON1C (relative stereo)', 4.76),
  ('Cc1cn([C@H]2C[C@H](F)[C@@H](CO)O2)c(=O)[nH]c1=O', 5.00),
  ('Nc1ccn(C[C@@H](CO)OCP(=O)(O)O)c(=O)n1', 5.00);

Requested field: pEC50. Item: "Nc1ccn([C@H]2CC[C@@H](CO)O2)c(=O)n1"
5.14

###

System: Human alphaherpesvirus 3
test description: Antiviral activity against thymidine kinase deficient Varicella-Zoster virus 07-1 infected in HEL cells assessed as reduction in virus plaque formation
Assay type: functional, cell-based
measurement type: pEC50
Note on pEC50: it is the negative log10 of concentration, concentration in mol/L.

INSERT INTO measurements (compound, assay_result) VALUES
  ('CCOP(=O)(OCC)C1CC(Cn2c(=O)n(Cc3cccc(F)c3)c(=O)c3ccccc32)ON1Cc1ccccc1 (mixture of isomers; trans)', 4.70);

Turning now to a further compound:
Requested field: pEC50. Item: CCOP(=O)(OCC)C1CC(Cn2c(=O)n(Cc3ccc(F)cc3)c(=O)c3ccccc32)ON1Cc1ccccc1 (mixture of isomers; trans)
5.44

###

# maps each entry to its CC50
System: HEL
test description: Cytotoxicity against HEL cells infected with Varicella-Zoster virus assessed as growth inhibition
Assay type: cell-based
test context: human, hel

Below are worked cases with known answers.
INSERT INTO measurements (molecule, assay_result) VALUES
  ('CCOP(=O)(OCC)[C@@H]1C[C@@H](Cn2c(=O)n(C(=O)c3cccc(F)c3)c(=O)c3ccccc32)ON1C (relative stereo)', '16.5 µM'),
  ('CCOP(=O)(OCC)C1CC(Cn2c(=O)n(Cc3ccc(F)cc3)c(=O)c3ccccc32)ON1Cc1ccccc1 (mixture of isomers; trans)', '6.6 µM'),
  ('CCOP(=O)(OCC)C1CC(Cn2c(=O)n(C(=O)c3ccccc3F)c(=O)c3ccccc32)ON1Cc1ccccc1 (mixture of isomers)', '21.4 µM'),
  ('CCOP(=O)(OCC)[C@H]1C[C@@H](Cn2c(=O)n(C(=O)c3ccccc3)c(=O)c3ccccc32)ON1Cc1ccccc1 (relative stereo)', '16.3 µM'),
  ('CCOP(=O)(OCC)[C@@H]1C[C@@H](Cn2c(=O)n(C(=O)c3ccccc3)c(=O)c3ccccc32)ON1Cc1ccccc1 (relative stereo)', '28.9 µM');

Requested field: CC50. Item: "CCOP(=O)(OCC)[C@@H]1C[C@@H](Cn2c(=O)n(C(=O)c3ccccc3)c(=O)c3ccccc32)ON1C"
> 100 µM

Next: CCOP(=O)(OCC)C1CC(Cn2c(=O)n(Cc3cccc(F)c3)c(=O)c3ccccc32)ON1C (mixture of isomers)
36.8 µM

###

# maps each entry to its MCC
Test system: HEL
test description: Cytotoxicity against HEL cells infected with Cytomegalovirus assessed as alteration in cell morphology by microscopic method
Type: cell-based
test context: human, hel
Value expressed in µM; do not type the unit.

INSERT INTO assay_data (compound, measurement_type, assay_result) VALUES
  ('CCOP(=O)(OCC)C1CC(Cn2c(=O)n(Cc3ccc(F)cc3)c(=O)c3ccccc32)ON1Cc1ccccc1 (mixture of isomers; trans)', 'MCC', 100),
  ('CCOP(=O)(OCC)C1CC(Cn2c(=O)n(Cc3cccc(F)c3)c(=O)c3ccccc32)ON1Cc1ccccc1 (mixture of isomers; cis)', 'MCC', 20),
  ('CCOP(=O)(OCC)C1CC(Cn2c(=O)n(Cc3ccc(F)cc3)c(=O)c3ccccc32)ON1Cc1ccccc1 (mixture of isomers; cis)', 'MCC', 20);

Please state recorded MCC (tested on HEL) of CCOP(=O)(OCC)C1CC(Cn2c(=O)n(Cc3cccc(F)c3)c(=O)c3ccccc32)ON1Cc1ccccc1 (mixture of isomers; trans)
100

###

test description: Cytotoxicity against HEL cells infected with Varicella-Zoster virus assessed as alteration in cell morphology by microscopic method
Type: cell-based
test context: human, HEL cells infected with Varicella-Zoster virus
# maps each entry to its MCC

Below are worked cases with known answers.
INSERT INTO assay_data (molecule, assay_result) VALUES
  ('CCOP(=O)(OCC)C1CC(Cn2c(=O)n(C(=O)c3ccccc3F)c(=O)c3ccccc32)ON1C (mixture of isomers)', '> 100 µM'),
  ('CCOP(=O)(OCC)C1CC(Cn2c(=O)n(C(=O)c3cccc(F)c3)c(=O)c3ccccc32)ON1Cc1ccccc1 (mixture of isomers)', '100 µM'),
  ('CCOP(=O)(OCC)C1CC(Cn2c(=O)n(C(=O)c3cccc(F)c3)c(=O)c3ccccc32)ON1C (mixture of isomers)', '> 100 µM');

Requested field: MCC. Item: CCOP(=O)(OCC)[C@@H]1C[C@@H](Cn2c(=O)n(C(=O)c3ccc(F)cc3)c(=O)c3ccccc32)ON1C (relative stereo)
≥ 100 µM

Next: CCOP(=O)(OCC)C1CC(Cn2c(=O)n(Cc3ccc(F)cc3)c(=O)c3ccccc32)ON1C (mixture of isomers)
100 µM

Next: CCOP(=O)(OCC)[C@@H]1C[C@@H](Cn2c(=O)n(C(=O)c3cccc(F)c3)c(=O)c3ccccc32)ON1Cc1ccccc1 (relative stereo)
100 µM

Next: CCOP(=O)(OCC)[C@@H]1C[C@@H](Cn2c(=O)n(Cc3cccc(F)c3)c(=O)c3ccccc32)ON1C (relative stereo)
> 100 µM

Next: CCOP(=O)(OCC)[C@@H]1C[C@@H](Cn2c(=O)n(Cc3ccccc3F)c(=O)c3ccccc32)ON1Cc1ccccc1 (relative stereo)
20 µM

Next: CCOP(=O)(OCC)[C@@H]1C[C@@H](Cn2c(=O)n(C(=O)c3cccc(F)c3)c(=O)c3ccccc32)ON1C (relative stereo)
> 100 µM
